System: CEM-SS
Assay: Antiviral activity against HIV-1 infected HXB2/CEM-SS cell lines.
Type: functional
Details: Homo sapiens
Exercise: state measured IC95 for each of the molecules provided.
State just the number; it will be interpreted in nM.

Query `CC(C)(C)NC(=O)[C@@H]1C[C@@H]2CCCC[C@@H]2CN1C[C@@H](O)[C@H](Cc1ccccc1)NC(=O)[C@H](CC(N)=O)NC(=O)c1ccc2ccccc2n1` yields IC95 of 21

Lookup result for `C[C@@H]1[C@H](OC(=O)N[C@@H](CSc2ccccc2)[C@H](O)CN2C[C@H]3CCS[C@H]3C[C@H]2C(=O)NC(C)(C)C)CCS1(=O)=O` ; measured IC95: 19

Value of measured IC95 for the entry `C[C@@H]1[C@H](OC(=O)N[C@@H](Cc2ccccc2)[C@H](O)CN2C[C@H]3CCCC[C@H]3C[C@H]2C(=O)NC(C)(C)C)CCS1(=O)=O` : 171

response.value for `CC(C)[C@@H]1[C@H](OC(=O)N[C@@H](Cc2ccccc2)[C@H](O)CN2C[C@H]3CCCC[C@H]3C[C@H]2C(=O)NC(C)(C)C)CCS1(=O)=O` (field: IC95) = 85

The molecule identified as `CC(C)[C@@H]1SCC[C@@H]1OC(=O)N[C@@H](Cc1ccccc1)[C@H](O)CN1C[C@H]2CCS[C@H]2C[C@H]1C(=O)NC(C)(C)C` registered its IC95 at 686

The recorded IC95 for entry `C[C@H]1OCC[C@H]1OC(=O)N[C@@H](CSc1ccccc1)[C@H](O)CN1C[C@H]2CCS[C@H]2C[C@H]1C(=O)NC(C)(C)C` equals 2560

// IC95 value for `CC(C)[C@H]1[C@@H](OC(=O)N[C@@H](Cc2ccccc2)[C@H](O)CN2C[C@H]3CCS[C@H]3C[C@H]2C(=O)NC(C)(C)C)CCS1(=O)=O` : 77

So, `C[C@@H]1OCC[C@@H]1OC(=O)N[C@@H](CSc1ccccc1)[C@H](O)CN1C[C@H]2CCS[C@H]2C[C@H]1C(=O)NC(C)(C)C` ? Its IC95 was 162

The molecule listed as `C[C@H]1[C@@H](OC(=O)N[C@@H](CSc2ccccc2)[C@H](O)CN2C[C@H]3CCS[C@H]3C[C@H]2C(=O)NC(C)(C)C)CCS1(=O)=O` has a reported IC95 of 31

Looking up `CC(C)[C@H]1[C@@H](OC(=O)N[C@@H](Cc2ccccc2)[C@H](O)CN2C[C@H]3CCCC[C@H]3C[C@H]2C(=O)NC(C)(C)C)CCS1(=O)=O` , I see its IC95 listed as 273

Memo: `CC(C)[C@@H]1[C@H](OC(=O)N[C@@H](CSc2ccccc2)[C@H](O)CN2C[C@H]3CCS[C@H]3C[C@H]2C(=O)NC(C)(C)C)CCS1(=O)=O` , reported IC95: 9

Quick note, IC95 for `CC(C)[C@H]1SCC[C@H]1OC(=O)N[C@@H](Cc1ccccc1)[C@H](O)CN1C[C@H]2CCS[C@H]2C[C@H]1C(=O)NC(C)(C)C` landed at 85

###

Test: Cmax value was determined between 15 and 30 minutes post administration in fisher rats; value ranges from 200-500
Type: ADME, organism-based
Details: rat, in vivo
Answer each item with its documented Cmax.
Expressed in ng/mL, but write only the number.

// Cmax value for `C[C@H]1[C@@H](OC(=O)N[C@@H](CSc2ccccc2)[C@H](O)CN2C[C@H]3CCS[C@H]3C[C@H]2C(=O)NC(C)(C)C)CCS1(=O)=O` : 200

Lab note: measured Cmax of `C[C@@H]1[C@H](OC(=O)N[C@@H](CSc2ccccc2)[C@H](O)CN2C[C@H]3CCS[C@H]3C[C@H]2C(=O)NC(C)(C)C)CCS1(=O)=O` was 200

Record `CC(C)[C@@H]1[C@H](OC(=O)N[C@@H](CSc2ccccc2)[C@H](O)CN2C[C@H]3CCS[C@H]3C[C@H]2C(=O)NC(C)(C)C)CCS1(=O)=O` . Reported Cmax: 200
